Biological target: human TRPV1 (Homo sapiens)
Construct: The full length of each of human transient receptor potential ankyrin 1 (TRPA1), transient receptor potential cation channel subfamily V member 1 (TRPV1); expressed in transfected cells
Sequence (Q8NER1 whole entry): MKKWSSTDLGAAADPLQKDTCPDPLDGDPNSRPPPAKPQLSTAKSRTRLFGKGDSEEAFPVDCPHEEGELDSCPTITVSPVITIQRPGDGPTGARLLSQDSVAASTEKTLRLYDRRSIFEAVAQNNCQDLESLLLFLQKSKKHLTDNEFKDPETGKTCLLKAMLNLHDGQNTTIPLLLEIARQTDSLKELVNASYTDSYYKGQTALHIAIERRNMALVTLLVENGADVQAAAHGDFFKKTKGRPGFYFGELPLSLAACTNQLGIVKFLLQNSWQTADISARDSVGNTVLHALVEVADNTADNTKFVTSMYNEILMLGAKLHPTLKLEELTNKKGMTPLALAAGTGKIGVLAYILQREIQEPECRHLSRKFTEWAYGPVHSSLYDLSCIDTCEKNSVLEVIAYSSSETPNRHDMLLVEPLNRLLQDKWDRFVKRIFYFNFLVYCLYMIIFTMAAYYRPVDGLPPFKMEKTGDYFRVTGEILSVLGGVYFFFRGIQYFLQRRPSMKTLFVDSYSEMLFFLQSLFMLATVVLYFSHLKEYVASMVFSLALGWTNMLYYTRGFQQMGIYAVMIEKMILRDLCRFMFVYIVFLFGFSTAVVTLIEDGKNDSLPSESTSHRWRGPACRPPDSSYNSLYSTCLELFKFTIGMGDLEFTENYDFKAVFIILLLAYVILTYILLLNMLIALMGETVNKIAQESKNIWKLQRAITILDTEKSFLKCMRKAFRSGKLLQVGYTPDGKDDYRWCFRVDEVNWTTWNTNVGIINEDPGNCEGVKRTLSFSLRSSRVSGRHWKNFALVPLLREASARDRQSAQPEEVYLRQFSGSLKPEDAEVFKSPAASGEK
Experiment: Ca2+ influx assay for TRP channel agonistic activity in T-REx-293 cells
Type: cell-based
Settings: 10 µmol/L test ingredient, positive control 2 µmol/L capsaicin, read-out: % Activation compared to positive control, TRPV1
Known activation at 10 µM of a selection of compounds
Numeric answer only, unit % assumed.

- COMPOUND: "CCCC[C@@H]1OC(=O)C2=C1CCC=C2 [Senkyunolide A]"
  VALUE UNITS: "%"
  activation at 10 µM: 1

Identify the measured activation at 10 µM of COc1c2ccoc2cc2oc(=O)ccc12 [Bergapten] for human TRPV1 (Homo sapiens).
0

Recall the recorded activation at 10 µM for CCC/C=C1\OC(=O)C2=C1CCC=C2 [Ligustilide] with human TRPV1 (Homo sapiens) and state it.
0

---

Experiment: Pharmacokinetics of ingredients in rat plasma after oral administration of shimotsuto (targeted LC–MS/MS)
Format: in vivo
Settings: in vivo; rat plasma, oral shimotsuto 1 g/kg, from mean concentration (n = 3) per time point; read-out: AUC0−last
VALUE TYPE: AUC(0-t) (ng·h/mL)
Numeric only. Scale: ng·h/mL

AUC(0-t) for COc1c2ccoc2cc2oc(=O)ccc12 [Bergapten] ?
0.0105

---

Experiment: Pharmacokinetics of ingredients in rat plasma after oral administration of shimotsuto (targeted LC–MS/MS)
Type: in vivo
Settings: in vivo; rat plasma, oral shimotsuto 1 g/kg, from mean concentration (n = 3) per time point; read-out: tmax
VALUE TYPE: Tmax (min)
Hi! Could you send only the number? It should be in min, unit omitted.

Given the entry COc1c2ccoc2cc2oc(=O)ccc12 , report its measured Tmax.
15

---

Target: human TRPA1 (Homo sapiens)
Construct: The full length of each of human transient receptor potential ankyrin 1 (TRPA1); expressed in transfected cells
Sequence (O75762 whole entry): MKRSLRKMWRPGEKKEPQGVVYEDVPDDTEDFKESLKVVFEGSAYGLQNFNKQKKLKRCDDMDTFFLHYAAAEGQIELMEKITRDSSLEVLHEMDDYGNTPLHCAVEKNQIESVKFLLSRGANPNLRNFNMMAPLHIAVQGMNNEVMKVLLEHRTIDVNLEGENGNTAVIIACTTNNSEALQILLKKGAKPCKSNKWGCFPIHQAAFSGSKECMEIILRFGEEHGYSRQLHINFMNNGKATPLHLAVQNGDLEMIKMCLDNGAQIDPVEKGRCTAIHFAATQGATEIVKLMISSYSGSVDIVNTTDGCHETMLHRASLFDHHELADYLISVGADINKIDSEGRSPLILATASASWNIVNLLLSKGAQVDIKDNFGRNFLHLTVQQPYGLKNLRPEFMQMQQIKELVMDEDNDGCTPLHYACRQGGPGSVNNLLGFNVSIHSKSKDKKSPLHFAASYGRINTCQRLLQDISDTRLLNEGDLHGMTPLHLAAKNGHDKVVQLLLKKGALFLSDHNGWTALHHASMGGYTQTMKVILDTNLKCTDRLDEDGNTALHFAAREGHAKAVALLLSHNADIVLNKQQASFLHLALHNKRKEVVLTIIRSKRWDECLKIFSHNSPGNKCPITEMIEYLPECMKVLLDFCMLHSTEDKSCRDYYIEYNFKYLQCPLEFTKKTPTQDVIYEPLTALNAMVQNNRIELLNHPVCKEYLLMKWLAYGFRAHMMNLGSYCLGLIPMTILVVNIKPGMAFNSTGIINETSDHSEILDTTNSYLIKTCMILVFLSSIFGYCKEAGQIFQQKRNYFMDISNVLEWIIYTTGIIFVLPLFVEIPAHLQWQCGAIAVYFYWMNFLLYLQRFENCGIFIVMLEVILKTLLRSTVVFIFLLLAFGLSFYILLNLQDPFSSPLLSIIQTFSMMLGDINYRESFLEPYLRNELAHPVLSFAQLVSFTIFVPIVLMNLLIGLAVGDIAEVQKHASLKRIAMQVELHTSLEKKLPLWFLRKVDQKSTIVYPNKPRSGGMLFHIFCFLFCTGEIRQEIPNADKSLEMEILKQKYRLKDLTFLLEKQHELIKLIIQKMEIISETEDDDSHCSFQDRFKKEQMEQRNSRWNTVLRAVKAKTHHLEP
Test: Ca2+ influx assay for TRP channel agonistic activity in T-REx-293 cells
Type: cell-based
Conditions: T-REx-293; 10 µmol/L test ingredient; positive control 20 µmol/L allyl isothiocyanate; read-out: % Activation compared to positive control, TRPA1
VALUE TYPE: activation at 10 µM (%)
Report as a plain number; the unit % is understood.

Solved cases below.
- COMPOUND: "CC12CC(O)C3CC1(OC1OC(CO)C(O)C(O)C1O)C3(COC(=O)c1ccccc1)C(=O)O2 (stereo not drawn) [Albiflorin]"
  activation at 10 µM [%]: 1
- COMPOUND: "C[C@@]12C[C@@]3(O)O[C@@H](O1)[C@]1(COC(=O)c4ccccc4)[C@H]3C[C@@]12O[C@@H]1O[C@H](CO)[C@@H](O)[C@H](O)[C@H]1O [Paeoniflorin]"
  activation at 10 µM [%]: 1
- COMPOUND: "CCCC[C@@H]1OC(=O)C2=C1CCC=C2 [Senkyunolide A]"
  activation at 10 µM [%]: 86
- COMPOUND: "CCCCC1OC(=O)c2ccccc21 (stereo not drawn) [Butylphthalide]"
  activation at 10 µM [%]: 73
- COMPOUND: "CCC/C=C1\\OC(=O)C2=C1CCC=C2 [Ligustilide]"
  activation at 10 µM [%]: 87

GET /values?readout=activation at 10 µM&item= OC[C@H]1O[C@@H](O[C@@H]2OC=C[C@H]3[C@H](O)[C@@H]4O[C@]4(CO)[C@@H]23)[C@H](O)[C@@H](O)[C@@H]1O [Catalpol]
2

Could you share which activation at 10 µM value was measured for COc1c2ccoc2cc2oc(=O)ccc12 [Bergapten] ?
3

Would you kindly share the measured activation at 10 µM for CC12CC3(O)OC(O1)C1(CO)C3CC21OC1OC(CO)C(O)C(O)C1O (stereo not drawn) [8-Debenzoylpaeoniflorin] ?
30

# input compound: COc1cc(/C=C/C(=O)O)ccc1O [Ferulic acid] ; wanted: its activation at 10 µM
3
